Molecular target: T1, recombinant cynomolgus monkey PD-1 expressed with a C-terminal myc-myc-hexahistidine tag (cynomolgus monkey (Macaca fascicularis))
T1 construct: monomeric; also called MfPD-1-MMH
T1 chain: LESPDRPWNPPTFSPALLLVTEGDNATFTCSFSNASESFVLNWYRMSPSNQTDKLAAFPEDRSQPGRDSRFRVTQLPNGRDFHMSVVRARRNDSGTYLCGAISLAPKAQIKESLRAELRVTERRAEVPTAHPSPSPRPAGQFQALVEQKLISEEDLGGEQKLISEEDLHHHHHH
Test: SPR, mAb captured, 37C;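 also: rate constants from fitting sensorgrams to a 1:1 binding model, with Kd computed as koff/kon and half-life as ln2/(60·koff), PD-1 flowing over anti-PD-1 antibody surfaces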
Is kon at least 80000 M⁻¹ s⁻¹? Then True. If not, False.

Previously resolved entries follow.
INSERT INTO assay_data (binder, class) VALUES
  ('H1M7800N (antibody, mouse IgG1, V domains shown, Human variable regions, mouse IgG1 Fc) VH: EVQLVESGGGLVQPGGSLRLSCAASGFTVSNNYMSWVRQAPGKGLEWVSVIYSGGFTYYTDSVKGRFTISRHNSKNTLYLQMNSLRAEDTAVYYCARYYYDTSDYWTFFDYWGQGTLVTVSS VL: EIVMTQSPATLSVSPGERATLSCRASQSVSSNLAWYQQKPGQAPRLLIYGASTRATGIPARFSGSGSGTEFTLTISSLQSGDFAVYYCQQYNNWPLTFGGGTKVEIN', 'True'),
  ('H1M7799N (antibody, mouse IgG1, V domains shown, Human variable regions, mouse IgG1 Fc) VH: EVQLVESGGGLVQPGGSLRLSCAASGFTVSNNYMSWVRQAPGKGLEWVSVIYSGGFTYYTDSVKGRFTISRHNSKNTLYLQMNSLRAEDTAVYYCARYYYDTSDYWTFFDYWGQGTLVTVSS VL: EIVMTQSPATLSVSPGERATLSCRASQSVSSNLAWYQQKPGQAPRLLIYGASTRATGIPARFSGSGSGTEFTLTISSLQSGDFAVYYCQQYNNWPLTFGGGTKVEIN', 'True'),
  ('H2aM7791N (antibody, mouse IgG2a, V domains shown, Human variable regions, mouse IgG2a Fc; also called H2M7791N) VH: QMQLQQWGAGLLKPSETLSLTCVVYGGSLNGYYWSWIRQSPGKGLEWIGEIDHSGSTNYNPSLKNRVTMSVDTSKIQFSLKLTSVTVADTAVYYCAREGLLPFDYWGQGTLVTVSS VL: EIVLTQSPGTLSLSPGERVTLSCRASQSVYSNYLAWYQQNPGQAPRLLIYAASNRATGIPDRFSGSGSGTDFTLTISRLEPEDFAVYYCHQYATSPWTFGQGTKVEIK', 'False');

Consider the record given below.
Hi team, for H1M7789N (antibody, mouse IgG1, V domains shown, Human variable regions, mouse IgG1 Fc) VH: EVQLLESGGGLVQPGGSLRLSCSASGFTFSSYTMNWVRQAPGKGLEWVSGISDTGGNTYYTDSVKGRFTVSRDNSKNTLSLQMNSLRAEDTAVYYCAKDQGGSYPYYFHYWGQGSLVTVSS VL: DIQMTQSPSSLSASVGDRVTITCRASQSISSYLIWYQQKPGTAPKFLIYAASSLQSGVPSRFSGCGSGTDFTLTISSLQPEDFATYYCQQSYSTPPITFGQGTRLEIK , is the recorded kon at or above 80000 M⁻¹ s⁻¹?
False
